# Target Desc: T1, Duck egg lysozyme (DEL), D65N + N103D double mutant of the DEL-II isoform (Anas platyrhynchos, DEL-II double mutant, strain)
# T1 construct: duck egg lysozyme, DEL-II isoform, D65N + N103D double mutant; differs from HEL3X at 25 amino acids; source: Pichia pastoris, secreted, purified from culture supernatant (ion exchange)
# T1 chain: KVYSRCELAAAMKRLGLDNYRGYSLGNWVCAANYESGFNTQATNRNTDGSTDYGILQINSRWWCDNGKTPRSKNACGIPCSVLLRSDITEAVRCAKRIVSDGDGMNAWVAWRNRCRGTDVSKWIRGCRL
# Protocol Notes: BLI; BLItz (ForteBio); biotinylated Hy10 Fab variant immobilised on streptavidin biosensors (rehydrated in PBS with 0.1% wt/vol BSA); soluble monomeric lysozyme antigen as analyte at a range of concentrations; global fit, 1:1 Fab-lysozyme interaction
# Condition Notes: both partners purified

{"columns": ["Binder", "Ka / M⁻¹"],
 "data": [
  ["Hy10 Fab S52T/Y53F/Y58F (Fab, V domains shown, as the heavy chain of Dm5 with the stated changes; as the light chain of Dm5; source: Expi293, transient (pCEP4), purified (Talon resin, gel filtration)) VH: DVQLQESGPSLVKPSQTLSLTCSVTGDSITSDYWSWIRKFPGNRLEYMGYVTFSGSTFYNPSLKSRISITRDTSKNQYYLDLNSVTTEDTATYYCANWDGDYWGQGTLVTVSA VL: DIVLTQSPATLSVTPGNSVSLSCRASQSIGNNLHWYQQKSHESPRLLIKYASQSISGIPSRFSGSGSGTDFTLSINSVETEDFGMYFCQQSNSWPYTFGGGTKLEIK", "1.99e+09"],
  ["Hy10 Fab L4F (Fab, V domains shown, as the heavy chain of Dm5 with the stated changes; as the light chain of Dm5; source: Expi293, transient (pCEP4), purified (Talon resin, gel filtration)) VH: DVQFQESGPSLVKPSQTLSLTCSVTGDSITSDYWSWIRKFPGNRLEYMGYVSYSGSTYYNPSLKSRISITRDTSKNQYYLDLNSVTTEDTATYYCANWDGDYWGQGTLVTVSA VL: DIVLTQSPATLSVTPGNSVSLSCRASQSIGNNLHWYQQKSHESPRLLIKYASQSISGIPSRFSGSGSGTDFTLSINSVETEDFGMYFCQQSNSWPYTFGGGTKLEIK", "3.25e+06"],
  ["Hy10 Fab Y53F (Fab, V domains shown, as the heavy chain of Dm5 with the stated changes; as the light chain of Dm5; source: Expi293, transient (pCEP4), purified (Talon resin, gel filtration)) VH: DVQLQESGPSLVKPSQTLSLTCSVTGDSITSDYWSWIRKFPGNRLEYMGYVSFSGSTYYNPSLKSRISITRDTSKNQYYLDLNSVTTEDTATYYCANWDGDYWGQGTLVTVSA VL: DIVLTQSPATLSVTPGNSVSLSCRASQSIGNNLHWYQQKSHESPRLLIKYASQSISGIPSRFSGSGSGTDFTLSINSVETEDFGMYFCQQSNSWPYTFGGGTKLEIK", "1.2e+08"]
]}
